Overview of recorded relative KD to parent for various binders
target.desc: T1, His-tagged CEACAM1 (human, UniProt P13688 35-428)
T1 construct: 45 kDa SPR analyte; also called CEACAM1-HIS; CEACAM1 analyte
T1 sequence: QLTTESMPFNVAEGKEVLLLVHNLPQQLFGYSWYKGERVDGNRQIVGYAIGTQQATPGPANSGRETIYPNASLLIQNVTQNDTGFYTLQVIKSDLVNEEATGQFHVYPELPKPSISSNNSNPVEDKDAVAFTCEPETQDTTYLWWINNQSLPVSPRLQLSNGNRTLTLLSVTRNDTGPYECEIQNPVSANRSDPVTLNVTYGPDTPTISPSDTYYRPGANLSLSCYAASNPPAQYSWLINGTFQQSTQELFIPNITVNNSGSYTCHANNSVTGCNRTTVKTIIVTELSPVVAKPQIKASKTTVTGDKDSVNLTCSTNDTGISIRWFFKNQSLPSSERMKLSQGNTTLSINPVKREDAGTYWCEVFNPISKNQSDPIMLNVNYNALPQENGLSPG
test.details: SPR single-cycle, supernatant IgG captured
A bare number is all that is needed in reply.

Illustrative cases are given below, each with its answer.
CP09E05/CP08E05 (antibody, IgG4, V domains shown, IgG4 (S241P), kappa) VH: EVQLLESGGGLVQPGGSLRLSCAASGFIFSSHGMSWVRQAPGKGLEWVATISSGGTYTYYPDSVKGRFTISRDNSKNTLYLQMNSLKAEDTAMYYCARHGFDYDAAWFAYWGQGTLVTVSS VL: EIVLTQSPATLSLSPGERATLSCRANSAVSYMYWYQQKPGQAPRPWIYLTSNRATGVPARFSGSGSGTDYTLTISSLEPEDFAVYYCQQWTTNPPTFGQGTKLEIK; 2.8
CP09C02/CP08E05 (antibody, IgG4, V domains shown, IgG4 (S241P), kappa) VH: EVQLLESGGGLVQPGGSLRLSCAASEFTFSDHAMSWVRQAPGKGLEWVATISSGGTYTYYPDSVKGRFTISRDNSKNTLYLQMNSLKAEDTAMYYCARHGFDYDAAWFAYWGQGTLVTVSS VL: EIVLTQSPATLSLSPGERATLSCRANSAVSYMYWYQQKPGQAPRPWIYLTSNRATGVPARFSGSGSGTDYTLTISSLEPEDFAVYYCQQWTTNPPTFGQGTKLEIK; 7.1

Next up:
Qu. Look at this binder and give its reported relative KD to parent. CP09C02/CP08E01 (antibody, IgG4, V domains shown, IgG4 (S241P), kappa) VH: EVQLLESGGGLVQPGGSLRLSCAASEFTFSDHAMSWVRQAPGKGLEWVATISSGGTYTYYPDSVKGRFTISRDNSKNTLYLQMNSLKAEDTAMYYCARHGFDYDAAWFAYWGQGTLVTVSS VL: EIVLTQSPATLSLSPGERATLSCRANSAVSYMYWYQQKPGQAPRPWIYLTSNRATGVPARFSGSGSGTDYTLTISSLEPEDFAVYYCQQWTTFPPTFGQGTKLEIK
Ans. 3.9
